Target: Follistatin-related protein 3 (Homo sapiens)
Assay: FSTL3 binders on small-molecule microarrays, primary screen, biochemical, small-molecule microarray, 635 nm fluorescence (AID 1105);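 also: score merges emission near 667 nm and signal to noise per printed spot across three slides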
Conditions: FSTL3 binding, higher = more signal
assay_metric: composite z-score
Answers are plain numbers.

Examples with their reported composite z-score follow.
compound: CS(=O)(=O)CCOC(=O)C1=CC(CCCO)=CC(c2ccc(CN3CCCC3)cc2)N(Cc2cc3c(cc2Br)OCO3)C=C1C(=O)OCCS(C)(=O)=O (stereo not drawn)
observed_measurement: 0.634
//
compound: CCCC#C[Si](O[C@H](CC)c1cn([C@H](CO)Cc2ccccc2)nn1)(C(C)C)C(C)C
observed_measurement: 1.15
//
compound: O=C1OCCC/C=C\[C@H]2OC34C=CCN(CCN5CCOCC5)C(=O)[C@H]3N(CCCO)C(=O)[C@@H]4C12 (stereo partly drawn)
observed_measurement: -0.621
//
compound: O=C1c2ccccc2[C@](Cc2ccccc2I)(C(=O)NC2CC2)[C@H](c2ccc(CO)cc2)N1Cc1ccccc1
observed_measurement: -0.117
//
compound: O=C1NC(=O)C2C1C=CC(C(O)Cc1ccccc1)N2Nc1ccc(Cl)cc1Cl (stereo not drawn)
observed_measurement: 0.236
//
compound: CN1C(=O)[C@]2(Cc3ccccc3)N=C(c3ccc(OCCCO)cc3)O[C@@H]2c2ccccc21
observed_measurement: 0.459
//
compound: COc1ccc(CCNC(=O)[C@@]2(Sc3ccc(C)cc3)CC(=O)N(C3CCCCC3)[C@@H]2c2ccc(CO)cc2I)cc1
observed_measurement: 1.03
//
compound: COc1cc2c(cc1OC)CN(C(=O)[C@@H]1[C@H]3C(=O)O[C@H](c4ccccc4)[C@H](c4ccccc4)N3[C@H](c3ccc(O)cc3)[C@@]13C(=O)Nc1ccc(C#CC4(O)CCCCCC4)cc13)CC2
observed_measurement: 0.498
//
compound: N#Cc1ccc(NN2C(C(O)c3c(F)cccc3Cl)C=CC3C(=O)N(c4ccccc4)C(=O)C32)cc1 (stereo not drawn)
observed_measurement: 1.12
//
compound: COCCOC(=O)N1C(=O)[C@@]2(c3cc(C#CC4=CCCCC4)ccc31)[C@H](C(N)=O)[C@H]1C(=O)O[C@H](c3ccccc3)[C@H](c3ccccc3)N1[C@@H]2c1ccc(OCCO)cc1
observed_measurement: 1.22

Dear colleague, could you please provide composite z-score for the compounds listed below?
1. CN(C)CCCNC(=O)[C@@]1(c2ccc([N+](=O)[O-])cc2)CC(=O)N(C2CCCCC2)[C@@H]1c1ccc(CO)cc1
2. C=CCOC(=O)[C@H]1[C@@H]2C(=O)O[C@@H](c3ccccc3)[C@@H](c3ccccc3)N2[C@@H](c2ccc(OCCOC(=O)[C@@H]3C[C@@H]4C(=O)N[C@@H](CCCC[N+](C)(C)C)C(=O)N4[C@@H]3c3ccc(O)cc3)cc2)[C@]12C(=O)Nc1ccccc12
3. COc1ccc(C#Cc2ccc3c(c2)[C@]2(C(=O)N3)[C@H](c3ccccc3OCCO)N3[C@H](c4ccccc4)[C@H](c4ccccc4)OC(=O)[C@H]3[C@@H]2C(=O)O)cc1

[out]
0.156
1.24
0.98
